Source listed as a melting point compilation (Tetko et al.; mined from patent text by program, amines drawn as free bases though some values may be those of a salt).

- compound: "COc1ccc2cccc(C(CCO)CNC(=O)C3CCC3)c2c1 (stereo not drawn)"
  melting point: "113 to 115 °C"
- compound: "Cc1nnsc1CS(=O)(=O)c1ccccc1"
  melting point: "118 °C"
- compound: "C#CCn1c2c(c(=O)n(-c3ccc(Cl)c(C(=O)OCC)c3)c1=O)CCC2"
  melting point: "121 to 123 °C"
- compound: "CC(=O)N1CCC(COCc2cc(C(F)(F)F)cc(C(F)(F)F)c2)(c2ccccc2)CC1"
  melting point: "64 to 65 °C"
- compound: "CCCCNC(=O)c1cccc(NC(=O)NS(=O)(=O)c2ccc(C)cc2)c1"
  melting point: "125 to 128 °C"
- compound: "CCN1C(=O)C(C)(C)C(=O)N(C)c2cc(CN(CCn3cc(C)c4oc(C)cc4c3=O)C(C)c3cccnc3C)ccc21 (stereo not drawn)"
  melting point: "169 to 170 °C"
- compound: "Cc1ccccc1COC1COC(CCl)OC1 (stereo not drawn)"
  melting point: "62 to 63 °C"
- compound: "COc1ccc(C(=O)O)c(Oc2ccc(C(F)(F)F)cc2NC(=O)Nc2cc(C(F)(F)F)cc(C(F)(F)F)c2)c1"
  melting point: "248 °C"
